These measurements were taken from ChEMBL document CHEMBL1154754.

# measurementNotes: Cmax in CB17 mouse at 10 mg/kg, po by LC/MS/MS method
# Type: ADME, organism-based
# Design: dose 10 mg/kg, route oral
# testParameters: in vivo
recordedEndpoint: Cmax (ng/mL)
Reply numerically in ng/mL, unit not repeated.

*Q* Cmax lookup needed for O=C1Nc2ccccc2-c2ccnc3[nH]cc(c23)C1c1ccc(O)cc1 (stereo unspecified) , thanks.
*A* 1000

###

# tgt: Tyrosine-protein kinase JAK2 (Homo sapiens)
# Sequence (O60674 whole entry): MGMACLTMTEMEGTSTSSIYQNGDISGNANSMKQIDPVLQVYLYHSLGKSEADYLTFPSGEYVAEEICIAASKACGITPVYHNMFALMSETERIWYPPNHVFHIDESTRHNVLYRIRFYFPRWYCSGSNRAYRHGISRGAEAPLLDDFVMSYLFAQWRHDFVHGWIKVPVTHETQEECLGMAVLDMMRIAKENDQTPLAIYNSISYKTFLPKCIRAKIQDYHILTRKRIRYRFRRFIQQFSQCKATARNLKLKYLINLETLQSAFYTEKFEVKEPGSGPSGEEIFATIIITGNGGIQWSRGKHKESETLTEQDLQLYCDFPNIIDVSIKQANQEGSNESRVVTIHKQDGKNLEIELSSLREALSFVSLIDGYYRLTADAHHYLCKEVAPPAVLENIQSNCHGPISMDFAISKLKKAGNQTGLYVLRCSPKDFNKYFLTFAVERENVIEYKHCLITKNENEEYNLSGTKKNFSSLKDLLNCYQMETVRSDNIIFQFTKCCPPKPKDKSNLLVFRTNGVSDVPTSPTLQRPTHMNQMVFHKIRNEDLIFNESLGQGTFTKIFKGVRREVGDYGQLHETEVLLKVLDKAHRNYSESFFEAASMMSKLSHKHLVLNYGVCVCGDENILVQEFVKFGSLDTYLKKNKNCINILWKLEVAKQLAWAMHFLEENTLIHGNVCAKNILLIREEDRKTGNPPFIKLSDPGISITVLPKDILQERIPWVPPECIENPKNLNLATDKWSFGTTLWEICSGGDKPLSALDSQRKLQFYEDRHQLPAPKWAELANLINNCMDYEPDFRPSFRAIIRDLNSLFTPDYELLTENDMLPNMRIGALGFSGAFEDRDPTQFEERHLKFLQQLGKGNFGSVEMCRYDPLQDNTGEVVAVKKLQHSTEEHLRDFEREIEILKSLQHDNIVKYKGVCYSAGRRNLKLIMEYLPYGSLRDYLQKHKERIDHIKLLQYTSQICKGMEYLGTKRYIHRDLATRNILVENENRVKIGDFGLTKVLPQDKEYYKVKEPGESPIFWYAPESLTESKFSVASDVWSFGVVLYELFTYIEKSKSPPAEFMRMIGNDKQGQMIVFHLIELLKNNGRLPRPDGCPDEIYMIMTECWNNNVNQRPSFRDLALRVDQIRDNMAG
# measurementNotes: Inhibition of recombinant JAK2
recordedEndpoint: pKi
In textbook form, pKi equals minus log to base ten of the concentration in mol/L.

| entrySmiles | tgt | pKi |
| --- | --- | --- |
| Clc1cnc2[nH]cc(-c3ccccc3)c2c1 | Tyrosine-protein kinase JAK2 (Homo sapiens) | 6.59 |

Alright, here's another compound for you.
*Q* pKi lookup needed for `c1ccc(-c2ncnc3[nH]ccc23)cc1` , thanks.
*A* 6.32
